# TEST PROTOCOL: yeast display, Sf9 membrane polyspecificity reagent, FACS + sequencing; frameworks hold sequencing errors
ENDPOINT: polyreactivity (PSR sort gate)

| BIOSEQUENCE | ENDPOINT | RESULT |
| --- | --- | --- |
| QVQLGESGGSLVQAGASLRLSCAASAITFYGNAMGWYRQAPGKERELVAAIRRGGSTNYADSVKGRFTISRDNAKKTVYLQMNSLKPEDTAVYYCAADSYGYTFRNYRVGYWGHGTQVTVSS | polyreactivity (PSR sort gate) | high polyreactivity |
| QVQLVESGGGLVQAGGRLRLTCAASGFTFGRYAMGWYRQAPGKERDLVADITSGSGGTYYADSVKGRFTISRATAKNSVYLQMNSLKPEDTAVYYCATGSRSRGALRYAHFDFWGQGTQVSVSS | polyreactivity (PSR sort gate) | high polyreactivity |
| QVQLVESGAGLVQAGGSLRLSCDASGSIFSWYAMGWYRQARGKERELVAAITWSGGSTYYADSVKGRFTISRDNAKNTVYLEMNSLKPEDTAVYYCNTYSYYAFDWGLGTQVTVSS | polyreactivity (PSR sort gate) | high polyreactivity |
| QVQLVESGGGLVQAGGSLRLSCAASGRTFIANAMGWYRQAPGKERELVAVITLNGGSTYYADSVKGRFTISRDNAKNTVYLQMNSLKPEDTAVYYCAAGRYYKLRATHGYWGQGTQVTVSS | polyreactivity (PSR sort gate) | low polyreactivity |
| QVQLVESGGGLVQAGGSLRLSCAASGRNFYYAMGWYRQEPGKERELVASITWSGGSTYYADSVKGRFTISRDNAKNTVYLQMNSLKPEDTAVYYCNADDLYTWYVEYNYWGQGTQVTVSS | polyreactivity (PSR sort gate) | low polyreactivity |

Challenge: Name the recorded polyreactivity (PSR sort gate) of the item QVQLVESGGGLVQAGGSLRISCAASGRTGKNAMVWYRQARGNERELVAASRYNGGSTYYADSVKGRFTISRDNANNTVYLQKNIMKPEYTAVYYCAAAFRRHNGSAFNYWGHGTQVTVSS in your answer.
Response given: high polyreactivity

Challenge: Name the recorded polyreactivity (PSR sort gate) of the item QVQLVESGGGLVQAGGSLRLSCAASGSTFAGNAMGWYRQAPGKERELVAAISGSGGITYYADSVKGRFTISRDNAKNTVYLQMNSLKPEDTAVYYCNAYYWFSRYGYWGQGTQVTVSS in your answer.
Response given: high polyreactivity

----------
# TEST PROTOCOL: yeast display, Sf9 membrane polyspecificity reagent, FACS + sequencing; frameworks hold sequencing errors
ENDPOINT: polyreactivity (PSR sort gate)

| BIOSEQUENCE | RESULT |
| --- | --- |
| QVQLVESGGGLVQAGGSLRLSCAASGRIFLGNAMGWYRQAPGKERELVAAIDASGGSTYYADSVKGRFTISRDNAKNTVYLQMNSLKPEDTAVYYCAADRGFLRSFAPGNMDYWGQGTQVTVSS | low polyreactivity |
| QVQLVESGGGLVQAGGSLLLSCAASGITFGDNAMGWYRQAPGKERELVAAISSGGSTDYADSVNGRFTISRDNAKNTVYLQMNSLKPEDTAVYYCAVDWVSVPEYDYWGQGTQVTVSS | low polyreactivity |
| QVQLVESGGRLVQAGGSLRLSCAASGRTFARNAMGWYRQAPGKERELVAAISWSGGSTYYADSVKGRFTISRDNAKNTVYLQMNSLKPEDTAVYYCAARICYYNYWGQGTQVTVSS | high polyreactivity |
| QVQLVESGGGLVQAGGSLRLSCAASGSTFYHYVMGWYRQAPGKERELGAAISWRGGRTYYADSVKGRFTISRDTAKNTVYLQMNSLKPEDTAVYYCARAYFQPSYYGVEYNYWGQGTQVTVSS | high polyreactivity |

Next item in the queue.
Challenge: Name the recorded polyreactivity (PSR sort gate) of the item QVQLVESGGGLVQAGGSLRLSCAASGSTFRYYTMGWYRQAPGKERELVASISRSGSTSYADSVKGRFTISRDNAKNTVYLQMNSLKPEDSAVYYCAGESYFGAYAGYDYWGQGTQVTVSS in your answer.
Response given: low polyreactivity
